Test system: L1210 leukemia ip in BDF1 mice, survival T/C
assaySummary: NCI In Vivo Anticancer Drug Screen. Data for tumor model L1210 Leukemia (intraperitoneal) in B6D2F1 (BDF1) mice
testSettings: endpoint: mean survival time; dose: 50.0 mg/kg/injection; schedule: Q01DX009 (ip); vehicle: saline with Tween-80; higher = longer survival
Toxic doses and inconclusive results are not listed.
measureName: T/C

Per the record, O=C1OC(=O)C2C3C=CC(C3)C12 (stereo unspecified) has T/C of 96 % of control

Per the record, OCC1N=C(c2ccccc2)OC1c1ccccc1 (stereo unspecified) has T/C of 94 % of control

Per the record, CCOC(=O)C(C#N)C1c2ccccc2Nc2ccccc21 (stereo unspecified) has T/C of 98 % of control

Per the record, CCOC(=O)C1=C(O)c2c(sc(C)c2C)N(S(=O)(=O)c2ccc(C)cc2)CC1 has T/C of 93 % of control

Per the record, Oc1cc(O)c2c(c1)OC(O)(c1ccc(O)c(O)c1)C(O)O2 (stereo unspecified) (tested in a mixture with another compound) has T/C of 104 % of control

Per the record, COc1cccc(C(C)(C)CC(=O)O)c1 has T/C of 90 % of control

----------
System: L1210 leukemia ip in BDF1 mice, survival T/C
assaySummary: NCI In Vivo Anticancer Drug Screen. Data for tumor model L1210 Leukemia (intraperitoneal) in B6D2F1 (BDF1) mice
testSettings: endpoint: mean survival time; dose: 30.0 mg/kg/injection; schedule: Q01DX Z (ip); vehicle: carboxymethylcellulose (CMC); higher = longer survival
Toxic doses and inconclusive results are not listed.
measureName: T/C

Per the record, CCOC(=O)N\C(N)=N/N=C(C)\C=N\N=C(/N)NC(=O)OCC has T/C of 101 % of control

Per the record, NC(N)=N/N=C(/C=N/N=C(N)N)C(O)C(O)CO (centres undefined) has T/C of 98 % of control

Per the record, C/C(=N/N=C(N)N)c1ccc(/C(C)=N/N=C(N)N)cc1 has T/C of 117 % of control

Per the record, CCOC(C)C(/C=N/Nc1ccccc1)=N\Nc1ccccc1 (centres undefined) has T/C of 97 % of control

----------
System: L1210 leukemia ip in BDF1 mice, survival T/C
assaySummary: NCI In Vivo Anticancer Drug Screen. Data for tumor model L1210 Leukemia (intraperitoneal) in B6D2F1 (BDF1) mice
testSettings: endpoint: mean survival time; dose: 200.0 mg/kg/injection; schedule: Q01DX009 (ip); vehicle: saline with Tween-80; higher = longer survival
Inconclusive results and toxic doses are left out. Peptide text beside a SMILES is read from it. * marks the point of attachment. Cbz = O=C(OCc1ccccc1)*; OtBu = CC(C)(C)O*
For each of the molecules below, state its T/C.

Per the record, c1ccc(CSC2=NCCS2)cc1 has T/C of 98 % of control

Per the record, CCOC(=O)C(C#N)C1c2ccccc2Nc2ccccc21 (stereo not given) has T/C of 91 % of control

Per the record, C=CCc1cc(OC)c(OC)c(OC)c1 has T/C of 101 % of control

Per the record, CCCCOC(=O)CCSCCC(=O)OCCCC has T/C of 94 % of control

Per the record, O=C(O)CCC(=O)Nc1ccccc1C(F)(F)F has T/C of 93 % of control

Per the record, O=C(O)CC(NCc1ccccc1)C(=O)O (stereo not given) has T/C of 91 % of control

Per the record, COC(=O)C(CCC(=O)OC(C)(C)C)NC(=O)C(NC(=O)OCc1ccccc1)C(C)C (stereo not drawn) (Cbz-Val-Glu(OtBu)-OMe; configuration not given here) has T/C of 89 % of control

Per the record, C=CCCCCCCCCC(=O)NCc1cccnc1 has T/C of 94 % of control

Per the record, O=C1C(Cl)=C(Nc2ccccc2)C(=O)C(Cl)=C1Nc1ccccc1 has T/C of 87 % of control

Per the record, CCOC(=O)C1=C(O)c2c(sc(C)c2C)N(S(=O)(=O)c2ccc(C)cc2)CC1 has T/C of 96 % of control

Per the record, CN(C)S(=O)(=O)c1ccc(NC(=O)C(Cl)Cl)cc1 has T/C of 100 % of control

Per the record, CCC1C/C(=C\NC(N)=O)C(=O)O1 (stereo not given) has T/C of 100 % of control

Per the record, O=C(O)C1C2C3CC(C4CC43)C12 (stereo not given) has T/C of 106 % of control

Per the record, C/C=C\c1ccc(OCCOC(=O)Nc2ccc(Cl)cc2C(F)(F)F)c(OC)c1 has T/C of 96 % of control

Per the record, CC1=CS(=O)(=O)CC(=O)N1 has T/C of 100 % of control

Per the record, CCCCCCCCC(O)CCCCCCCCC(=O)O (stereo not given) has T/C of 97 % of control

Per the record, COc1ccc(CC(Cc2ccc(OC)c(OC)c2)NC=O)cc1OC has T/C of 97 % of control

Per the record, Cc1nc2c(=O)[nH]n(C)c2nc1C has T/C of 95 % of control

Per the record, CCOC(=O)NCCc1ccc(OC)c(OC)c1 has T/C of 91 % of control

Per the record, O=C(CC(NC(=O)OCc1ccccc1)C(=O)O)OCc1ccccc1 (stereo not given) has T/C of 94 % of control

Per the record, CCCCC(OC(=O)c1ccc([N+](=O)[O-])cc1)C(C)[N+](=O)[O-] (stereo not given) has T/C of 97 % of control

Per the record, C=CCNC(=S)Nc1cccc(C(C)OC(=O)NC(C)(C)C)c1 (stereo not given) has T/C of 107 % of control

Per the record, CCC/C(=N\NC(=O)c1ccccc1OC)c1ccccc1 has T/C of 105 % of control

Per the record, Oc1ccc2ccccc2c1Cc1cccc2ccccc12 has T/C of 95 % of control

Per the record, O=C1C2CC=CCC2C(=O)C2CC=CCC12 (stereo not given) has T/C of 93 % of control

----------
System: L1210 leukemia ip in BDF1 mice, survival T/C
assaySummary: NCI In Vivo Anticancer Drug Screen. Data for tumor model L1210 Leukemia (intraperitoneal) in B6D2F1 (BDF1) mice
testSettings: endpoint: mean survival time; dose: 6.25 mg/kg/injection; schedule: Q01DX009 (ip); vehicle: saline; higher = longer survival
Inconclusive results and toxic doses are left out.
measureName: T/C

Here NCC1CCCCC1 was tested on L1210 leukemia ip in BDF1 mice, survival T/C, and its T/C came to 107 % of control

Here CCN(CC)c1ccc(N=Cc2ccccc2S(=O)(=O)O)cc1 was tested on L1210 leukemia ip in BDF1 mice, survival T/C, and its T/C came to 95 % of control

Here Nc1ncn(C2CC(O)C(CO)O2)c(=O)n1 (configuration not stated) was tested on L1210 leukemia ip in BDF1 mice, survival T/C, and its T/C came to 86 % of control

Here CCC(=O)c1ccc2c(c1)N(CCCN1CCN(CCO)CC1)c1ccccc1S2 was tested on L1210 leukemia ip in BDF1 mice, survival T/C, and its T/C came to 104 % of control

Here CSC(N)=NC1CCCCC1 was tested on L1210 leukemia ip in BDF1 mice, survival T/C, and its T/C came to 103 % of control

Here CC(C)=CC(=O)OCC[N+](C)(C)C was tested on L1210 leukemia ip in BDF1 mice, survival T/C, and its T/C came to 98 % of control

Here O=[N+]([O-])C(CO)(CO)CC(F)(F)F was tested on L1210 leukemia ip in BDF1 mice, survival T/C, and its T/C came to 98 % of control

----------
Tested on: L1210 leukemia ip in BDF1 mice, survival T/C
assaySummary: NCI In Vivo Anticancer Drug Screen. Data for tumor model L1210 Leukemia (intraperitoneal) in B6D2F1 (BDF1) mice
testSettings: endpoint: mean survival time; dose: 300.0 mg/kg/injection; schedule: Q01DX001 (ip); vehicle: saline; higher = longer survival
Inconclusive results and toxic doses are left out.
For each of the compounds below, state its T/C.

Here O=C(CCl)Nc1ccc(S(=O)(=O)c2ccc([N+](=O)[O-])cc2)cc1 was tested on L1210 leukemia ip in BDF1 mice, survival T/C, and its T/C came to 94 % of control

Here Clc1ccc(/C=C/c2nc(Cl)c(-c3ccc(Cl)cc3)c(Cl)n2)cc1 was tested on L1210 leukemia ip in BDF1 mice, survival T/C, and its T/C came to 97 % of control

Here CC12C(=O)C(C(c3ccccc3)=C1c1ccccc1)C1C(=O)OC(=O)C12 (configuration not stated) was tested on L1210 leukemia ip in BDF1 mice, survival T/C, and its T/C came to 95 % of control

Here CC1=CCC2C(C)(C)CCCC2(C)C1CO (configuration not stated) was tested on L1210 leukemia ip in BDF1 mice, survival T/C, and its T/C came to 95 % of control

Here Nc1ccc(SCC(=O)O)cc1 was tested on L1210 leukemia ip in BDF1 mice, survival T/C, and its T/C came to 92 % of control

Here CC(C)/C=C/C1(C(C)C)C(=O)NC(=S)NC1=O was tested on L1210 leukemia ip in BDF1 mice, survival T/C, and its T/C came to 98 % of control

Here CCOC1(OCC)C(C)C(c2ccccc2)C(c2ccccc2)C1C (configuration not stated) was tested on L1210 leukemia ip in BDF1 mice, survival T/C, and its T/C came to 89 % of control
